koff values by entry
Biological target: T1, monkey Fc-PD-1 protein (monkey, UniProt Q15116 25-170 (human entry))
T1 construct: not shown: Fc part not described
T1 chain: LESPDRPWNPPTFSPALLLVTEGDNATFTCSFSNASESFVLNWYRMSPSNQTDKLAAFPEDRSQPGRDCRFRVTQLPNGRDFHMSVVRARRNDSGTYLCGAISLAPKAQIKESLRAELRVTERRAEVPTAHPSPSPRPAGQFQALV
Assay: Biacore, Fab, monkey Fc-PD-1
Express it in s⁻¹; write the number only.

A35774 (Fab, V domains shown, humanized Fab clone of 135C12; also called humanized antibody A35774) VH: EVQLVQSGAEVKKPGESLKISCKGSGYSFTNFYIHWVRQAPGQRLEWMGSIYPNYGDTAYNQKFKDRFVFSLDTSVSTAYLQISSLKAEDTAVYYCARGYSYAMDYWGQGTTVTVSS VL: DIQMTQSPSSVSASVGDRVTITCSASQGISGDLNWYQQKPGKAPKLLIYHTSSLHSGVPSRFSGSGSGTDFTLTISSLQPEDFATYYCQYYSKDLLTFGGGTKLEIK :: 0.000194
A36443 (Fab, V domains shown, humanized Fab clone of 135C12; also called humanized antibody A36443) VH: EVQLVQSGAEVKKPGATVKISCKVSGYTFTNFYIHWVRQARGQRLEWIGSIYPNYGDTAYNQKFKDRVTITADKSTSTAYMELSSLRSEDTAVYYCARGYSYAMDYWGQGTTVTVSS VL: DIQMTQSPSSVSASVGDRVTITCSASQGISGDLNWYQQKPGQAPRLLIYHTSSLHSGVPSRFSGSGSGTEFTLTISRLEPEDFAVYYCQYYSKDLLTFGGGTKLEIK :: 0.000585
A36437 (Fab, V domains shown, humanized Fab clone of 135C12; also called humanized antibody A36437) VH: EVQLVQSGAEVKKPGESLKISCKGSGYSFTNFYIHWVRQMPGKGLEWMGSIYPNYGDTAYNQKFKDRFVFSLDTSVSTAYLQISSLKAEDTAVYYCARGYSYAMDYWGQGTTVTVSS VL: DIQMTQSPSTLSASVGDRVTITCSASQGISGDLNWYQQKPGQAPRLLIYHTSSLHSGIPARFSGSGSGTDFTLTISSLQPEDFAVYYCQYYSKDLLTFGGGTKLEIK :: 0.000368

May I ask what koff has been recorded for A35777 (Fab, V domains shown, humanized Fab clone of 135C12; also called humanized antibody A35777) VH: EVQLVQSGAEVKKPGATVKISCKVSGYTFTNFYIHWVRQAPGKGLEWMGSIYPNYGDTAYNQKFKDRVTITADKSTSTAYMELSSLRSEDTAVYYCARGYSYAMDYWGQGTTVTVSS VL: DIQMTQSPSTLSASVGDRVTITCSASQGISGDLNWYQQKPGQAPRLLIYHTSSLHSGVPSRFSGSGSGTDFTLTISSLQPEDFATYYCQYYSKDLLTFGGGTKLEIK ? 0.000575
